# EXPERIMENTAL_TARGET: panel of more than 300 wild-type and mutant kinases (313 kinase panel) (Homo sapiens, UniProt P07333)
# EXPERIMENT_DESCRIPTION: Kinase profiling in a biochemical assay panel (mobility shift assays and ELISA), %-inhibition at 1 μM; selectivity entropy
# COND: kinase FMS; compound at 1 μM
MEASURED_METRIC: %-inhibition of FMS (%)
Write the value in % as a bare number.

Some compounds with recorded %-inhibition of FMS:
1) CS(=O)(=O)CCNCc1ccc(-c2ccc3ncnc(Nc4ccc(OCc5cccc(F)c5)c(Cl)c4)c3c2)o1
-5.46
2) CO[C@H]1C[C@@H]2CC[C@@H](C)[C@@](O)(O2)C(=O)C(=O)N2CCCC[C@H]2C(=O)O[C@H]([C@H](C)C[C@@H]2CC[C@@H](OCCO)[C@H](OC)C2)CC(=O)[C@H](C)/C=C(\C)[C@@H](O)[C@@H](OC)C(=O)[C@H](C)C[C@H](C)/C=C/C=C/C=C/1C
-2.3
3) COc1cc2nccc(Oc3ccc(NC(=O)C4(C(=O)Nc5ccc(F)cc5)CC4)cc3)c2cc1OC [cabozantinib]
54
4) CCCS(=O)(=O)Nc1ccc(F)c(C(=O)c2c[nH]c3ncc(-c4ccc(Cl)cc4)cc23)c1F
6

Looking up CC(=O)Nc1cccc(-n2c(=O)n(C3CC3)c(=O)c3c(Nc4ccc(I)cc4F)n(C)c(=O)c(C)c32)c1 , I found its %-inhibition of FMS recorded as -4

Looking up COc1cc(Nc2c(C#N)cnc3cc(OCCCN4CCN(C)CC4)c(OC)cc23)c(Cl)cc1Cl , I found its %-inhibition of FMS recorded as 93

Looking up CO[C@H]1C[C@@H]2CC[C@@H](C)[C@@](O)(O2)C(=O)C(=O)N2CCCC[C@H]2C(=O)O[C@H]([C@H](C)C[C@@H]2CC[C@@H](OC(=O)C(C)(CO)CO)[C@H](OC)C2)CC(=O)[C@H](C)/C=C(\C)[C@@H](O)[C@@H](OC)C(=O)[C@H](C)C[C@H](C)/C=C/C=C/C=C/1C , I found its %-inhibition of FMS recorded as -1.41

Looking up C[C@@H](Oc1cc(-c2cnn(C3CCNCC3)c2)cnc1N)c1c(Cl)ccc(F)c1Cl , I found its %-inhibition of FMS recorded as 92

Looking up CC(C)(C)c1nc(-c2cccc(NS(=O)(=O)c3c(F)cccc3F)c2F)c(-c2ccnc(N)n2)s1 , I found its %-inhibition of FMS recorded as 15

Looking up O=S(=O)(c1cccc2cnccc12)N1CCCNCC1 , I found its %-inhibition of FMS recorded as -3

Looking up CNC(=O)c1cc(Oc2ccc(NC(=O)Nc3ccc(Cl)c(C(F)(F)F)c3)c(F)c2)ccn1 , I found its %-inhibition of FMS recorded as 92

Looking up Cc1ccc(C(=O)Nc2ccc(CN3CCN(C)CC3)c(C(F)(F)F)c2)cc1C#Cc1cnc2cccnn12 , I found its %-inhibition of FMS recorded as 101
